Here the recorded Relative potency is given for each entry.
test system: HL-60; assay: Differentiation inducing effect on HL-60 cells; format: functional, Homo sapiens
Could you respond with only the numeric value?

{"MOLECULE": "C=C1/C(=C\\C=C2/CCC[C@]3(C)[C@@H]([C@H](C)CCCC(C)(C)O)CC[C@@H]23)C[C@@H](O)[C@@H](C)[C@@H]1O (stereo in doubt; form 2)", "Relative potency": 10}
{"MOLECULE": "C=C1/C(=C\\C=C2/CCC[C@]3(C)[C@@H]([C@H](C)CCCC(C)(C)O)CC[C@@H]23)C[C@@H](O)C[C@@H]1O", "Relative potency": 100}
{"MOLECULE": "C=C1/C(=C\\C=C2/CCC[C@]3(C)[C@@H]([C@H](C)CCCC(C)(C)O)CC[C@@H]23)C[C@@H](O)[C@H](C)[C@@H]1O (stereo in doubt; form 1)", "Relative potency": 200}

Shift focus to the following entry.
Entry C=C1/C(=C\C=C2/CCC[C@]3(C)[C@@H]([C@H](C)CCCC(C)(C)O)CC[C@@H]23)C[C@@H](O)[C@@H](C)[C@@H]1O (stereo in doubt; form 1) : reported Relative potency = ?
2600
